IC50 values for the compounds below.
Target: G12V-mutant human KRAS (amino acid residues 1-188) (Homo sapiens, UniProt P01116, G12V)
Construct: G12V-mutant human KRAS (amino acid residues 1-188) with FLAG tag was purified from E. coli; made in house; host or cells: E. coli
Assay: KRAS Binding Competition Assay (AlphaScreen; biotinylated KRpep-2d analogue), G12V
Conditions: geometric mean, read-out: KRAS GMean IC50 (uM) MUTATION: G12V

Answered examples (5):
compound | IC50
CN(C)c1cccc(/C=C/c2nc(N3C[C@H]4CC[C@@H](C3)N4)c3cc(Cl)c(-c4c(O)cccc4F)c(F)c3n2)c1 | 0.0001 to 10 µM
NS(=O)(=O)C1(C(=O)N2[C@@H]3CC[C@H]2CN(c2nc(OCC45CCCN4CCC5)nc4c(F)c(-c5cc(O)cc6ccccc56)ccc24)C3)CC1 | 0.0001 to 10 µM
CN1CCC[C@H]1COc1nc(N2CC3COCC(C2)N3)c2cc(Cl)c(-c3cc(O)cc4ccccc34)c(F)c2n1 | 0.0001 to 10 µM
CC(=O)OCC(=O)N1[C@@H]2CC[C@H]1CN(c1nc(OCC34CCCN3CCC4)nc3cc(-c4cc(O)cc5ccccc45)ccc13)C2 | 0.0001 to 10 µM
C[C@H](O)C(=O)N1C[C@H]2CC[C@@H](C1)N2c1nc(OC[C@@H]2CCCN2C)nc2cc(-c3cc(O)cc4ccccc34)ccc12 | 10 to 100 µM

Query block: Find the measured IC50 of CN1CCC[C@H]1COc1nc(N2[C@@H]3CC[C@H]2CN(C(=O)CC2SC(=O)NC2=O)C3)c2ccc(-c3cc(O)cc4ccccc34)cc2n1 (some centres unmarked) and report it.
Result block: 10 to 100 µM

Query block: Find the measured IC50 of `CN1CCC[C@H]1COc1nc(N2C[C@H]3CC[C@@H](C2)N3)c2ccc(-c3cncc(Cl)c3Cl)cc2n1` and report it.
Result block: 100 to 1000 µM

Query block: Find the measured IC50 of `CNC(=O)C(C)(C)COc1nc(N2C[C@H]3CC[C@@H](C2)N3)c2ccc(-c3cc(O)cc4ccccc34)c(F)c2n1` and report it.
Result block: 10 to 100 µM

Query block: Find the measured IC50 of `NS(=O)(=O)CCC(=O)N1[C@@H]2CC[C@H]1CN(c1nc(OCC34CCCN3CCC4)nc3cc(-c4cc(O)cc5ccccc45)ccc13)C2` and report it.
Result block: 0.0001 to 10 µM

Query block: Find the measured IC50 of `CN1CCC[C@H]1COc1nc(N2[C@@H]3CC[C@H]2CN(C(=O)CC2CCNCC2)C3)c2ccc(-c3cc(O)cc4ccccc34)cc2n1` and report it.
Result block: 10 to 100 µM

---

Target: G12C-mutant human KRAS (amino acid residues 1-188) (Homo sapiens, UniProt P01116, G12C)
Construct: G12D or G12C-mutant human KRAS (amino acid residues 1-188) with FLAG tag; made in house; host or cells: E. coli
Experiment: KRAS Binding Disruption Assay (AlphaScreen; biotinylated KRpep-2d analogue or RAF1-RBD), G12C
Conditions: geometric mean, read-out: KRAS GMean IC50 (uM) MUTATION: G12C
readout: IC50

Answered examples (6):
compound | readout | recordedValue
O=C1NC(=O)C(CC(=O)N2[C@@H]3CC[C@H]2CN(c2nc(OCC45CCCN4CCC5)nc4c(F)c(-c5cc(O)cc6ccccc56)ccc24)C3)S1 (stereo partly shown) | IC50 | 0.0001 to 10 µM
O=C1NCCC1COc1nc(N2C[C@H]3CC[C@@H](C2)N3)c2ccc(-c3cc(O)cc4ccccc34)c(F)c2n1 (stereo partly shown) | IC50 | 10 to 100 µM
CN1CCC[C@H]1COc1nc(N2C[C@H]3CC[C@@H](C2)N3C(=O)C(N)=O)c2ccc(-c3cc(O)cc4ccccc34)c(F)c2n1 | IC50 | 0.0001 to 10 µM
CN1CCC(Oc2nc(N3C[C@H]4CC[C@@H](C3)N4)c3cc(Cl)c(-c4cc(O)cc5ccccc45)c(F)c3n2)CC1 | IC50 | 10 to 100 µM
CN(C)CCOc1nc(N2C[C@H]3CC[C@@H](C2)N3)c2ccc(-c3cc(O)cc4ccccc34)c(F)c2n1 | IC50 | 0.0001 to 10 µM
Cn1cc(NC(=O)N2[C@@H]3CC[C@H]2CN(c2nc(OCC45CCCN4CCC5)nc4cc(-c5cc(O)cc6ccccc56)ccc24)C3)cn1 | IC50 | 0.0001 to 10 µM

Turning to the following compound.
Query block: Find the measured IC50 of `CC(C)(C)OC(=O)COc1nc(N2C[C@H]3CC[C@@H](C2)N3)c2ccc(-c3cc(O)cc4ccccc34)c(F)c2n1` and report it.
Result block: 10 to 100 µM

---

Target: G12V-mutant human KRAS (amino acid residues 1-188) (Homo sapiens, UniProt P01116, G12V)
Construct: G12V-mutant human KRAS (amino acid residues 1-188) with FLAG tag was purified from E. coli; made in house; host or cells: E. coli
Experiment: KRAS Binding Competition Assay (AlphaScreen; biotinylated KRpep-2d analogue), G12V
Conditions: geometric mean, read-out: KRAS GMean IC50 (uM) MUTATION: G12V
IC50 values for the compounds below.

Answered examples (5):
compound | recordedValue
CN1CCC[C@H]1COc1nc(N2C[C@H]3CC[C@@H](C2)N3)c2ccc(-c3nc(N)cc4ccccc34)c(F)c2n1 | 10 to 100 µM
O=C(Nc1cn[nH]c1)N1[C@@H]2CC[C@H]1CN(c1nc(OCC34CCCN3CCC4)nc3cc(-c4cc(O)cc5ccccc45)ccc13)C2 | 0.0001 to 10 µM
O=C1N[C@@H](CC(=O)N2[C@@H]3CC[C@H]2CN(c2nc(OCC45CCCN4CCC5)nc4c(F)c(-c5cc(O)cc6ccccc56)ccc24)C3)CO1 | 0.0001 to 10 µM
CN1CCN(C(=O)CN2C[C@H]3CC[C@@H](C2)N3c2nc(OC[C@@H]3CCCN3C)nc3cc(-c4cc(O)cc5ccccc45)ccc23)CC1 | 10 to 100 µM
Oc1cc(-c2ccc3c(N4C[C@H]5CC[C@@H](C4)N5)nc(OCC45CCCCN4CCC5)nc3c2)c2ccccc2c1 (stereo partly shown) | 0.0001 to 10 µM

Query block: Find the measured IC50 of `CN1CCc2cccc(Oc3nc(N4C[C@H]5CC[C@@H](C4)N5)c4cc(Cl)c(-c5c(O)cccc5F)c(F)c4n3)c2C1` and report it.
Result block: 10 to 100 µM

Query block: Find the measured IC50 of Cc1cccc2c1N(c1ccc3c(N4C[C@H]5CC[C@@H](C4)N5)nc(OCC45CCCN4CCC5)nc3c1F)CC(O)C2 (stereo partly shown) and report it.
Result block: 100 to 1000 µM

Query block: Find the measured IC50 of `CN1CCC[C@H]1COc1nc(N2C[C@H]3CC[C@@H](C2)N3)c2ccc(-c3cc([N+](=O)[O-])cc4ccccc34)cc2n1` and report it.
Result block: 10 to 100 µM

Query block: Find the measured IC50 of `CN(C)c1cccc(CCc2nc(N3C[C@H]4CC[C@@H](C3)N4)c3cc(Cl)c(-c4c(O)cccc4F)c(F)c3n2)c1` and report it.
Result block: 0.0001 to 10 µM

Query block: Find the measured IC50 of `CCN1CCC[C@H]1COc1nc(N2C[C@H]3CC[C@@H](C2)N3)c2ccc(-c3cc(O)cc4ccccc34)cc2n1` and report it.
Result block: 10 to 100 µM

Query block: Find the measured IC50 of O=C1NCCC1NC(=O)N1[C@@H]2CC[C@H]1CN(c1nc(OCC34CCCN3CCC4)nc3cc(-c4cc(O)cc5ccccc45)ccc13)C2 (stereo partly shown) and report it.
Result block: 0.0001 to 10 µM

Query block: Find the measured IC50 of `CN1CCC[C@H]1COc1nc(N2[C@@H]3CC[C@H]2CN(C(=O)c2ncn[nH]2)C3)c2ccc(-c3cc(O)cc4ccccc34)cc2n1` and report it.
Result block: 10 to 100 µM

Query block: Find the measured IC50 of `CN1CCC[C@H]1COc1nc(N2C[C@H]3CC[C@@H](C2)N3C(=O)Cc2c[nH]cn2)c2ccc(-c3cc(O)cc4ccccc34)cc2n1` and report it.
Result block: 0.0001 to 10 µM

---

Target: G12D-mutant human KRAS (amino acid residues 1-188) (Homo sapiens, UniProt P01116, G12D)
Construct: G12D or G12C-mutant human KRAS (amino acid residues 1-188) with FLAG tag; made in house; host or cells: E. coli
Assay: KRAS Binding Disruption Assay (AlphaScreen; biotinylated KRpep-2d analogue or RAF1-RBD), G12D
Conditions: KRAS G12D; geometric mean; read-out: KRAS GMean IC50 (uM) MUTATION: G12D
IC50 values for the molecules below.

Answered examples (10):
molecule | IC50
Cn1cc(NC(=O)N2[C@@H]3CC[C@H]2CN(c2nc(OCC45CCCN4CCC5)nc4cc(-c5cc(O)cc6ccccc56)ccc24)C3)cn1 [P-0128] | 0.0001 to 10 µM
CC(C)(C)C(CO)COc1nc(N2C[C@H]3CC[C@@H](C2)N3)c2ccc(-c3cc(O)cc4ccccc34)c(F)c2n1 (some centres unmarked) [P-0585] | 0.0001 to 10 µM
CN1CCCC1COc1nc(N2C[C@H]3CC[C@@H](C2)N3C(=O)NO)c2ccc(-c3cc(O)cc4ccccc34)c(F)c2n1 (some centres unmarked) [P-0422] | 0.0001 to 10 µM
Oc1cc(-c2ccc3c(N4C[C@H]5CC[C@@H](C4)N5)nc(N4CC(O)C4)nc3c2F)c2ccccc2c1 [P-0633] | 0.0001 to 10 µM
COc1ccc2[nH]cc(-c3c(Cl)cc4c(N5C[C@H]6CC[C@@H](C5)N6)nc(OC[C@@H]5CCCN5C)nc4c3F)c2c1 [P-0319] | 0.0001 to 10 µM
CN1CCC[C@H]1COc1nc(N2[C@@H]3CC[C@H]2CN(C(=O)NC2CN4CCC2CC4)C3)c2ccc(-c3cc(O)cc4ccccc34)cc2n1 (some centres unmarked) [P-0208] | 0.0001 to 10 µM
OCC1(COc2nc(N3C[C@H]4CC[C@@H](C3)N4)c3ccc(-c4cc(O)cc5ccccc45)c(F)c3n2)CC2(CCC2)C1 [P-0569] | 0.0001 to 10 µM
OCc1cccc2[nH]cc(-c3ccc4c(N5C[C@H]6CC[C@@H](C5)N6)nc(OCC56CCCN5CCC6)nc4c3F)c12 [P-0574] | 0.0001 to 10 µM
C[C@@H](O)C(=O)N1C[C@H]2CC[C@@H](C1)N2c1nc(OC[C@@H]2CCCN2C)nc2cc(-c3cc(O)cc4ccccc34)ccc12 [P-0220] | 10 to 100 µM
CC1(NC(=O)N2[C@@H]3CC[C@H]2CN(c2nc(OCC45CCCN4CCC5)nc4cc(-c5cc(O)cc6ccccc56)ccc24)C3)CCNC1 (some centres unmarked) [P-0124] | 0.0001 to 10 µM

Query block: Find the measured IC50 of CN1CCC[C@H]1COc1nc(N2C[C@H]3CC[C@@H](C2)N3)c2ccc(-c3ccc4oc(N)nc4c3)cc2n1 [P-0181] and report it.
Result block: 10 to 100 µM

Query block: Find the measured IC50 of CN1CCc2c(cccc2Oc2nc(N3C[C@H]4CC[C@@H](C3)N4)c3cc(Cl)c(-c4c(O)cccc4F)c(F)c3n2)C1 [P-0333] and report it.
Result block: 0.0001 to 10 µM

Query block: Find the measured IC50 of CN1CCC[C@H]1COc1nc(N2C[C@H]3CC[C@@H](C2)N3)c2cc(F)c(-c3c[nH]c4c(Cl)cccc34)c(F)c2n1 [P-0800] and report it.
Result block: 10 to 100 µM

Query block: Find the measured IC50 of Oc1cc(-c2ccc3c(N4C[C@H]5CC[C@@H](C4)N5)nc(N4CC5(CCC5O)C4)nc3c2F)c2ccccc2c1 (some centres unmarked) [P-0555] and report it.
Result block: 0.0001 to 10 µM
